The molecules listed here are annotated with their DC50.
Molecular target: CBP (Homo sapiens, UniProt Q92793)
Construct: host or cells: A549 CBP HiBit cells
Sequence (Q92793 whole entry): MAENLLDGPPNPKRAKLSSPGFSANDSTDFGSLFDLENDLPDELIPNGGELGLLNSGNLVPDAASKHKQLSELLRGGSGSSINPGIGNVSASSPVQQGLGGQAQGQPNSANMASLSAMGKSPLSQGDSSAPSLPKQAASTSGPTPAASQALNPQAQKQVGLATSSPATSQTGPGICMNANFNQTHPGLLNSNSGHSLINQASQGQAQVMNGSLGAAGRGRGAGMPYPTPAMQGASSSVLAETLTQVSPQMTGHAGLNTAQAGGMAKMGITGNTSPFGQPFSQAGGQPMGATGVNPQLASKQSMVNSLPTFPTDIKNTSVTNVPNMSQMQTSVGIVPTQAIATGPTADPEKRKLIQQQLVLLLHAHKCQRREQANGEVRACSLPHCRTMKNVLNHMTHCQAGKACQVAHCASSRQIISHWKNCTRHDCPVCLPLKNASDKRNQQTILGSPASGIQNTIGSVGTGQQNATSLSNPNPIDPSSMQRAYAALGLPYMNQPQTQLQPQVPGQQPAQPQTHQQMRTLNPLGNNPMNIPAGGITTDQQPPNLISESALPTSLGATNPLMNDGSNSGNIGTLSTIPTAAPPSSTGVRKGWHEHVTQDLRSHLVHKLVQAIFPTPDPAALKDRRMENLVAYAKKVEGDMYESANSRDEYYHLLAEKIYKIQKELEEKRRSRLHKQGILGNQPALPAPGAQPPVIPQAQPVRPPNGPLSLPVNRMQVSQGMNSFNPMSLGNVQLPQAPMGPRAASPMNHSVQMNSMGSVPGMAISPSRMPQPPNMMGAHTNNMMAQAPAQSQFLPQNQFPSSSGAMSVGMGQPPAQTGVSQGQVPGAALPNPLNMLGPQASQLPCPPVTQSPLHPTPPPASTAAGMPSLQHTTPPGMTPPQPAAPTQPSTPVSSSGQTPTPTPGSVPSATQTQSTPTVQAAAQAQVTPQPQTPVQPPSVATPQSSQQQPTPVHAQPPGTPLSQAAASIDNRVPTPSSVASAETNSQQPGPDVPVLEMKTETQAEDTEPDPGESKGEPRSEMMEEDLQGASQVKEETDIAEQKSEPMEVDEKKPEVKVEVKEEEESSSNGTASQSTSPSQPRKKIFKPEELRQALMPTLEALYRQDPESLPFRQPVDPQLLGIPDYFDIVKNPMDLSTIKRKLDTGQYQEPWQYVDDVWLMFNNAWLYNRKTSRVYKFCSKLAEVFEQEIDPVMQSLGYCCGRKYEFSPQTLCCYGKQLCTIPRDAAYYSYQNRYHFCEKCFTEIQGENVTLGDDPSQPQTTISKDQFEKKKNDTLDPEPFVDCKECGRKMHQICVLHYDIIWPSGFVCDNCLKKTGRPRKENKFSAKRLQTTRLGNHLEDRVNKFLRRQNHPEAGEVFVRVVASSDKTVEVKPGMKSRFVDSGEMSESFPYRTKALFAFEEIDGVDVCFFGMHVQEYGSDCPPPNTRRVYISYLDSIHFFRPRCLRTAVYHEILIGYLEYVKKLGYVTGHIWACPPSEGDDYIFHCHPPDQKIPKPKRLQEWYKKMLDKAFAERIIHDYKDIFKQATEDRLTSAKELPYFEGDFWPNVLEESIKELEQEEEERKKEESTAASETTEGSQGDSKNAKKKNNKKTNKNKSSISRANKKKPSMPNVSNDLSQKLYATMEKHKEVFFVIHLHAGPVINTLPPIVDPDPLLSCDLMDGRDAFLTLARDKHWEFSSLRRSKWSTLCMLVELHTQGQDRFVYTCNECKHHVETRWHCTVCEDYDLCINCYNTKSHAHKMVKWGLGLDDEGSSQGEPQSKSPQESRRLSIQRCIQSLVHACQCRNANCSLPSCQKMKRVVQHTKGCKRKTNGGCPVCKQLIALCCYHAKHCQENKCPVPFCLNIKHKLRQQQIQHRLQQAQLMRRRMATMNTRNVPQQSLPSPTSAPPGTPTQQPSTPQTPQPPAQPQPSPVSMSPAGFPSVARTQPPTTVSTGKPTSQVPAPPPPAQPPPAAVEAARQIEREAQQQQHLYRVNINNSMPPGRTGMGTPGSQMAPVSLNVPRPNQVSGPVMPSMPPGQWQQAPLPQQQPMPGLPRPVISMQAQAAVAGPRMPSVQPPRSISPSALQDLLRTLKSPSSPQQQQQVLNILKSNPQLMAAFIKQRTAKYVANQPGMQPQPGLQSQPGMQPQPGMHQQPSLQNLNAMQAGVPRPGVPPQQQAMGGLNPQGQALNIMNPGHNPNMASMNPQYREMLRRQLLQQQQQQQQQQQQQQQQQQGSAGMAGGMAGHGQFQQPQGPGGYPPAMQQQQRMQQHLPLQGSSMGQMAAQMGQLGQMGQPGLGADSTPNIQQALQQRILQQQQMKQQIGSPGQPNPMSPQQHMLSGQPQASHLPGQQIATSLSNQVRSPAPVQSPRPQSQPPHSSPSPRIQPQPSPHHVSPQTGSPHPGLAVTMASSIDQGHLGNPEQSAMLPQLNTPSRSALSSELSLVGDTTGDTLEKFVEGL
Test: CBP degradation, HiBit technology in A549 CBP HiBit cells (24 h)
Type: cell-based
Conditions: 24 hrs post treatment

Some solved entries appear below for comparison.
molecule	DC50
Cn1c(=O)n(C)c2cc(-c3cccc4cc(-c5ccc(C(=O)NCC#Cc6cc7c(C8CCC(=O)NC8=O)cccc7o6)nc5)ncc34)ccc21 (stereo not drawn)	> 1000 nM
CCc1cc(-c2cccc3cc(-c4ccc(C(=O)NCC#Cc5cccc(CC6CCC(=O)NC6=O)c5)nc4)ncc23)c2cc(C)c(=O)n(C)c2c1 (stereo not drawn)	100 to 999 nM
Cc1cc2c(N3CCCc4nc(-c5ccc(C(=O)NCC#Cc6cc7c(C8CCC(=O)NC8=O)cccc7o6)nc5)ncc43)cc(C(C)C)nc2n(C)c1=O (stereo not drawn)	> 1000 nM
Cc1cc2c(N3CCCc4nc(-c5ccc(C(=O)NCC#Cc6cc7c(C8CCC(=O)NC8=O)nccc7o6)nc5)ncc43)cc(C3CCOCC3)cc2n(C)c1=O (stereo not drawn)	1 to 9.9 nM
Cn1c(=O)n(C)c2cc(N3CCCc4nc(-c5ccc(C(=O)NCC#Cc6ccc7occ(C8CCC(=O)NC8=O)c7c6)nc5)ncc43)ccc21 (stereo not drawn)	> 1000 nM

IN: Give CBP (Homo sapiens, UniProt Q92793) DC50 for Cc1cc2c(N3CCCc4nc(-c5ccc(C(=O)NCC#Cc6ccc7occ(C8CCC(=O)NC8=O)c7c6)nc5)ccc43)cc(C3CCOCC3)cc2n(C)c1=O (stereo not drawn)
OUT: > 1000 nM

IN: Give CBP (Homo sapiens, UniProt Q92793) DC50 for CC(C)c1cc(-c2cccc3cc(-c4ccc(C(=O)NCC#Cc5ccc6[nH]nc(C7CCC(=O)NC7=O)c6c5)nc4)ncc23)cc2c1n(C)c(=O)n2C (stereo not drawn)
OUT: 1 to 9.9 nM

IN: Give CBP (Homo sapiens, UniProt Q92793) DC50 for CCN(CC)c1cc2c(cc(C)c(=O)n2C)c(N2CCCc3nc(-c4ccc(C(=O)NCC#Cc5cc6c(C7CCC(=O)NC7=O)nccc6o5)nc4)ncc32)n1 (stereo not drawn)
OUT: 10 to 99 nM

IN: Give CBP (Homo sapiens, UniProt Q92793) DC50 for CC(C)c1cc(-c2cccc3cc(-c4ccc(C(=O)NCC#Cc5cc6c(C7CCC(=O)NC7=O)nccc6s5)nc4)ncc23)cc2c1n(C)c(=O)n2C (stereo not drawn)
OUT: 10 to 99 nM

IN: Give CBP (Homo sapiens, UniProt Q92793) DC50 for Cc1cc2c(N3CCCc4nc(-c5ccc(C(=O)NCC#Cc6cc7c(C8CCC(=O)NC8=O)cccc7o6)nc5)ncc43)nc(N3CCOCC3)cc2n(C)c1=O (stereo not drawn)
OUT: 100 to 999 nM

IN: Give CBP (Homo sapiens, UniProt Q92793) DC50 for Cc1cc2c(N3CCCc4nc(-c5ccc(C(=O)NCC#Cc6ccc7occ(C8CCC(=O)NC8=O)c7c6)nc5)ncc43)nc(N3CC4(COC4)C3)cc2n(C)c1=O (stereo not drawn)
OUT: > 1000 nM

IN: Give CBP (Homo sapiens, UniProt Q92793) DC50 for Cc1cc(-c2cc3cccc(-c4nc(N5CCOCC5)cc5c4cc(C)c(=O)n5C)c3cn2)cnc1C(=O)NCC#Cc1cc2c(C3CCC(=O)NC3=O)cccc2o1 (stereo not drawn)
OUT: 1 to 9.9 nM
